test: Induction of tubulin polymerization at 10 uM by DAPI fluorescence method relative to control
value-type: Activity (%)

Below are worked cases with known answers.
{"input-smiles": "CC(=O)O[C@@]12CO[C@@H]1C[C@H](O)[C@@]1(C)C(=O)[C@H](OC(=O)OCc3ccccc3)C3=C(C)[C@@H](OC(=O)[C@H](O)[C@@H](NC(=O)c4ccccc4)c4ccccc4)C[C@@](O)([C@@H](OC(=O)c4ccccc4)[C@H]21)C3(C)C", "unit-descriptor": "%", "Activity": 115}
{"input-smiles": "CCC(=O)O[C@H]1C(=O)[C@]2(C)[C@@H](OC(=O)c3ccccc3)C[C@H]3OC[C@@]3(OC(C)=O)[C@H]2[C@H](OC(=O)c2ccccc2)[C@]2(O)C[C@H](OC(=O)[C@H](O)[C@@H](NC(=O)c3ccccc3)c3ccccc3)C(C)=C1C2(C)C", "unit-descriptor": "%", "Activity": 97}

[1] CCC(=O)O[C@H]1C(=O)[C@]2(C)[C@@H](OC(=O)CC)C[C@H]3OC[C@@]3(OC(C)=O)[C@H]2[C@H](OC(=O)c2ccccc2)[C@]2(O)C[C@H](OC(=O)[C@H](O)[C@@H](NC(=O)c3ccccc3)c3ccccc3)C(C)=C1C2(C)C
[2] CC(=O)O[C@@]12CO[C@@H]1C[C@H](OC(=O)C1CC1)[C@@]1(C)C(=O)[C@H](OC(=O)OCc3ccccc3)C3=C(C)[C@@H](OC(=O)[C@H](O)[C@@H](NC(=O)c4ccccc4)c4ccccc4)C[C@@](O)([C@@H](OC(=O)c4ccccc4)[C@H]21)C3(C)C
Enquiry: Could you kindly indicate whether 1 or 2 has the higher Activity value? Which one? Tell me its label.
Return: 1
(1: 111%, 2: 53%)

---

assay: Induction of tubulin polymerization at 10 uM by DAPI fluorescence method relative to control
value-type: Activity (%)

Sample answers from the record:
{"input-smiles": "CCC(=O)O[C@H]1C[C@H]2OC[C@@]2(OC(C)=O)[C@H]2[C@H](OC(=O)c3ccccc3)[C@]3(O)C[C@H](OC(=O)[C@H](O)[C@@H](NC(=O)c4ccccc4)c4ccccc4)C(C)=C([C@@H](OC(=O)OCc4ccccc4)C(=O)[C@]12C)C3(C)C", "value": 24}
{"input-smiles": "CCC(=O)O[C@H]1C(=O)[C@]2(C)[C@@H](OC(C)=O)C[C@H]3OC[C@@]3(OC(C)=O)[C@H]2[C@H](OC(=O)c2ccccc2)[C@]2(O)C[C@H](OC(=O)[C@H](O)[C@@H](NC(=O)c3ccccc3)c3ccccc3)C(C)=C1C2(C)C", "value": 111}

[A] C/C=C/C(=O)O[C@H]1C(=O)[C@]2(C)[C@@H](OC(=O)CCl)C[C@H]3OC[C@@]3(OC(C)=O)[C@H]2[C@H](OC(=O)c2ccccc2)[C@]2(O)C[C@H](OC(=O)[C@H](O)[C@@H](NC(=O)c3ccccc3)c3ccccc3)C(C)=C1C2(C)C
[B] C/C=C/C(=O)O[C@H]1C(=O)[C@]2(C)[C@@H](OC(=O)c3ccccc3)C[C@H]3OC[C@@]3(OC(C)=O)[C@H]2[C@H](OC(=O)c2ccccc2)[C@]2(O)C[C@H](OC(=O)[C@H](O)[C@@H](NC(=O)c3ccccc3)c3ccccc3)C(C)=C1C2(C)C
Enquiry: Hello, I am sorting some records. Could you say if A or B has the smaller Activity value? Let me know the label of the one you choose.
Return: B
(B: 81%, A: 116%)

---

assay: Induction of tubulin polymerization at 10 uM by DAPI fluorescence method relative to control
value-type: Activity (%)

{"input-smiles": "CCC(=O)O[C@H]1C(=O)[C@]2(C)[C@@H](OC(=O)CCl)C[C@H]3OC[C@@]3(OC(C)=O)[C@H]2[C@H](OC(=O)c2ccccc2)[C@]2(O)C[C@H](OC(=O)[C@H](O)[C@@H](NC(=O)c3ccccc3)c3ccccc3)C(C)=C1C2(C)C", "Activity [%]": 114}
{"input-smiles": "COc1cccc(C(=O)O[C@H]2C[C@H]3OC[C@@]3(OC(C)=O)[C@H]3[C@H](OC(=O)c4ccccc4)[C@]4(O)C[C@H](OC(=O)[C@H](O)[C@@H](NC(=O)c5ccccc5)c5ccccc5)C(C)=C([C@@H](OC(=O)c5ccccc5)C(=O)[C@]23C)C4(C)C)c1", "Activity [%]": 78}
{"input-smiles": "CCCC(=O)O[C@H]1C[C@H]2OC[C@@]2(OC(C)=O)[C@H]2[C@H](OC(=O)c3ccccc3)[C@]3(O)C[C@H](OC(=O)[C@H](O)[C@@H](NC(=O)c4ccccc4)c4ccccc4)C(C)=C([C@@H](OC(=O)CC)C(=O)[C@]12C)C3(C)C", "Activity [%]": 123}
{"input-smiles": "CCCCC(=O)O[C@H]1C[C@H]2OC[C@@]2(OC(C)=O)[C@H]2[C@H](OC(=O)c3ccccc3)[C@]3(O)C[C@H](OC(=O)[C@H](O)[C@@H](NC(=O)c4ccccc4)c4ccccc4)C(C)=C([C@@H](OC(=O)CC)C(=O)[C@]12C)C3(C)C", "Activity [%]": 102}
